Tested on: MDA-MB-468 breast
Test: NCI tumour cell line growth inhibition, 48 h
Reported metric: TGI (µM)

>>> quantitative_readout("CCCCCCNC(=O)c1cc(NCc2cc(O)ccc2O)ccc1O")
28.9
>>> quantitative_readout("CCCCCCCCCCCCCC1=NC(C)(C)CN1C(C)C")
2.94
>>> quantitative_readout("N#Cc1c(NN)n(C2OC(CO)C(O)C2O)c2ncnc(N)c12 (stereo not given)")
0.0594
>>> quantitative_readout("[Cl][Hg][c]1cc(Br)cc(Br)c1")
3.02
>>> quantitative_readout("O=C1NC(=O)C(c2cnc3ccccn23)=C1c1cn2c3c(cc(F)cc13)CN(C(=O)N1CCCCC1)CC2")
29.9
>>> quantitative_readout("CCN(CC)CCOc1ccc(-c2nc3cc(Cl)ccc3s2)cc1")
2.46
>>> quantitative_readout("COc1ccc(CN2C(=O)/C(=C\\C(=O)c3ccc(OCCN4CCCCC4)cc3)c3ccccc32)cc1")
3.68
>>> quantitative_readout("CCCCCc1ccc(S(=O)(=O)Nc2cc(-c3csc(N(C)C(C)=O)n3)ccc2N2CCN(C)CC2)cc1")
7.5
>>> quantitative_readout("NC(=O)c1c(NC(=O)c2ccc(C3CCCCC3)cc2)sc2c1CCC(=O)C2")
1.43

---

Measured GI50 by item
Tested on: MDA-MB-468 breast
Test: NCI tumour cell line growth inhibition, 48 h
Reported metric: GI50

>>> result("O=C(Nc1ccc(Cl)cc1F)c1ccccc1O")
"2.31 µM"
>>> result("O=C1/C(=C/c2ccc(Br)cc2)COc2ccc(O)c(O)c21")
"1.37 µM"
>>> result("O=C(CNc1ccc(Cl)cc1)Nc1ccc(-c2nc3ccccc3s2)cc1")
"0.0375 µM"
>>> result("CCCCCCCCCCCCCC1=NC(C)(C)CN1C(C)C")
"1.52 µM"
>>> result("Clc1nc2ccccc2nc1CI")
"2.99 µM"
>>> result("COc1ccc(CCOc2cc3c(cc2OC)CCN(C(=O)NCc2cocn2)C3c2ccc(C)cc2C)cc1 (stereo not given)")
"0.289 µM"
>>> result("CC(C)=CCNc1ncnc2c1ncn2C1OC(CO)C(O)C1O (stereo not given)")
"0.37 µM"
>>> result("O=C(Cc1ccc(/C=C/C(=O)c2ncc[nH]2)cc1)Nc1cc(F)c(F)c(F)c1")
"1.11 µM"
>>> result("C=COCCCOc1ccccc1")
"> 100 µM"
>>> result("O=C1NC(=O)C(c2cnc3ccccn23)=C1c1cn2c3c(cc(F)cc13)CN(C(=O)N1CCCCC1)CC2")
"4.47 µM"

---

System: MDA-MB-468 breast
Assay: NCI tumour cell line growth inhibition, 48 h
Binary call on TGI: class 1 from 3 µM upward, class 0 beneath that.

>>> class_name("CCN1CCN(C(c2ccc(C(F)(F)F)cc2)c2ccc3cccnc3c2O)CC1 (stereo unspecified)")
"class 1"
>>> class_name("CN1CCN(CCOc2ccc(-c3cnc4c(-c5ccccc5F)cnn4c3)cc2)CC1")
"class 1"
>>> class_name("O=C(CNc1ccc(Cl)cc1)Nc1ccc(-c2nc3ccccc3s2)cc1")
"class 0"
>>> class_name("C=COCCCOc1ccccc1")
"class 1"
>>> class_name("CC(C)=CCNc1ncnc2c1ncn2C1OC(CO)C(O)C1O (stereo unspecified)")
"class 0"
>>> class_name("C=C1CC[C@@H]2[C@](C)(COC(C)=O)[C@H](OC(C)=O)CC[C@@]2(C)[C@@H]1CC(Sc1ccccc1)C1=CCOC1=O (stereo partly specified)")
"class 1"
